- Species: Rattus norvegicus
- method_notes: Open TG-GATES - Regimen: Single
- Assay type: toxicity, organism-based, Sprague-Dawley
- Design: regimen Single, gender Male, age 6 weeks
- experimental_context: in vivo, po, 0 mg/kg, 6 h, route gavage, dose level Control
Known TERMINAL_BW of a selection of compounds
// note: answer is a bare numeric in g

As a guide, the following entries are already answered.
O=C(O)c1cc(/N=N/c2ccc(S(=O)(=O)Nc3ccccn3)cc2)ccc1O [SULFASALAZINE] | 206.9
Cn1c(=O)c2[nH]cnc2n(C)c1=O.O [THEOPHYLLINE] | 213.2
C[C@H](CS)C(=O)N1CCC[C@H]1C(=O)O [CAPTOPRIL] | 220.4

The measured TERMINAL_BW associated with NC(=O)N/N=C/c1ccc([N+](=O)[O-])o1 [NITROFURAZONE] reads 180.8

The measured TERMINAL_BW associated with Clc1ccccc1CN1CCc2sccc2C1 [TICLOPIDINE] reads 208.2

The measured TERMINAL_BW associated with CC(=O)Oc1ccccc1C(=O)O [ASPIRIN] reads 217.3

The measured TERMINAL_BW associated with CN(C)CCC=C1c2ccccc2CCc2ccccc21 [AMITRIPTYLINE] reads 193.8

The measured TERMINAL_BW associated with CCc1cc(C(N)=S)ccn1 [ETHIONAMIDE] reads 223.7

The measured TERMINAL_BW associated with NC(=O)N1c2ccccc2C=Cc2ccccc21 [CARBAMAZEPINE] reads 213.8

The measured TERMINAL_BW associated with COc1ccc(Cc2nccc3cc(OC)c(OC)cc23)cc1OC [PAPAVERINE] reads 214

The measured TERMINAL_BW associated with CSc1ccc2c(c1)N(CCC1CCCCN1C)c1ccccc1S2 (configuration not stated) [THIORIDAZINE] reads 212.3

The measured TERMINAL_BW associated with O=C(O)c1cn(C2CC2)c2cc(N3CCNCC3)c(F)cc2c1=O [CIPROFLOXACIN] reads 182.4

----------
- Species: Rattus norvegicus
- method_notes: Open TG-GATES - Regimen: Single
- Type: toxicity, organism-based, Sprague-Dawley
- Set-up: regimen Single, gender Male, age 6 weeks
- experimental_context: in vivo, po, 1000 mg/kg, 9 h, tissue Plasma, route gavage, dose level High
Known TP of a selection of compounds
// note: answer is a bare numeric in g/dL

As a guide, the following entries are already answered.
C[C@H](CS)C(=O)N1CCC[C@H]1C(=O)O | 5.1
O=C(O)c1cc(/N=N/c2ccc(S(=O)(=O)Nc3ccccn3)cc2)ccc1O | 5.8
O=C(O)c1cn(C2CC2)c2cc(N3CCNCC3)c(F)cc2c1=O | 5.6
Clc1ccccc1CN1CCc2sccc2C1 | 5.6

The measured TP associated with CCc1cc(C(N)=S)ccn1 [ETHIONAMIDE] reads 5.3

----------
Known KIDNEY_R of a selection of compounds
- Organism: Rattus norvegicus
- method_notes: Open TG-GATES - Regimen: Daily Repeat
- Type: toxicity, organism-based, Sprague-Dawley
- Design: regimen Daily Repeat, gender Male, age 6 weeks
- experimental_context: in vivo, po, 0 mg/kg, […], tissue Kidney, route gavage, dose level Control, time 14 day
// note: answer is a bare numeric in g

As a guide, the following entries are already answered.
O=C(O)c1cc(/N=N/c2ccc(S(=O)(=O)Nc3ccccn3)cc2)ccc1O [SULFASALAZINE] | 1.2
NC(=O)N/N=C/c1ccc([N+](=O)[O-])o1 [NITROFURAZONE] | 1.2
O=C(O)c1cn(C2CC2)c2cc(N3CCNCC3)c(F)cc2c1=O [CIPROFLOXACIN] | 1.2
COc1ccc2c(c1)c(CC(=O)O)c(C)n2C(=O)c1ccc(Cl)cc1 [INDOMETHACIN] | 1.3

The measured KIDNEY_R associated with Clc1ccccc1CN1CCc2sccc2C1 [TICLOPIDINE] reads 1.2
